System: Mv4-11
Assay: cell viability relative to DMSO control (bortezomib = 0%); higher = less growth inhibition
Conditions: 10 nM; 72 h
value_type: cell viability

{"compound": "CS(=O)(=O)CCNCc1ccc(-c2ccc3ncnc(Nc4ccc(OCc5cccc(F)c5)c(Cl)c4)c3c2)o1 [Lapatinib ditosylate monohydrate]", "reported_result": "108%"}
{"compound": "Cn1ncc(Cl)c1-c1cc(C(=O)N[C@H](CN)Cc2cccc(F)c2)sc1Cl", "reported_result": "113%"}
{"compound": "CNC(=O)c1ccccc1Oc1nc(Nc2cc(OC)c(OC)c(OC)c2)ncc1Br", "reported_result": "107%"}
{"compound": "CO[C@H]1C[C@@H]2CC[C@@H](C)[C@@](O)(O2)C(=O)C(=O)N2CCCC[C@H]2C(=O)O[C@H]([C@H](C)C[C@@H]2CC[C@@H](O)[C@H](OC)C2)CC(=O)[C@H](C)/C=C(\\C)[C@@H](O)[C@@H](OC)C(=O)[C@H](C)C[C@H](C)/C=C/C=C/C=C/1C [Rapamycin (Sirolimus)]", "reported_result": "43.3%"}
{"compound": "Cc1c(F)cc(C(=O)NC2CC2)cc1-c1ccc(C(=O)NCC(C)(C)C)cn1", "reported_result": "118%"}
{"compound": "Cc1nc(Nc2ncc(C(=O)Nc3c(C)cccc3Cl)s2)cc(N2CCN(CCO)CC2)n1", "reported_result": "114%"}
{"compound": "COc1cc2ncnc(Nc3ccc(Cl)cc3F)c2cc1OC", "reported_result": "102%"}
{"compound": "CS(=O)(=O)N1CCN(Cc2cc3nc(-c4cccc5[nH]ncc45)nc(N4CCOCC4)c3s2)CC1", "reported_result": "107%"}
{"compound": "Nc1ncnc2c1c(-c1cccc(OCc3ccccc3)c1)cn2C1CC(CN2CCCC2)C1 (centres undefined)", "reported_result": "96.5%"}
